Source of measurements: PubChem BioAssay (NCI)

# Test system: HCC-2998 colon
# PROCEDURE_TEXT: NCI-60 one-dose screen, 48 h (100 = growth as untreated, 0 = no growth, -100 = all killed)
# RUN_PARAMETERS: 10 µM unless noted
The panel holds about 83,000 compounds, 20% with a hit somewhere; the sample as a whole holds those more often.
compounds and their reported growth
Quick reminder: number only, in %, skip the unit.

The cases that follow already have their growth on record.
O=C(c1ccccc1)[C@H]1[C@@H]2CCCN2[C@]2(C(=O)Nc3ccc(F)cc32)[C@]12C(=O)Nc1ccccc12 : 101
Cc1ncc(CO)c(C(=O)O)c1O : 95.3
CC(=O)n1cc(/C=C2\N=C(c3ccc(Cl)cc3)N(c3ccc(S(=O)(=O)Nc4nccs4)cc3)C2=O)c2ccccc21 : 107

Item under review: O=C(Nc1cccc([N+](=O)[O-])c1)Nc1cccc([N+](=O)[O-])c1 . Reported growth?
45.2

For the compound Cn1cnc([N+](=O)[O-])c1N1c2ccncc2Sc2ccncc21 , what growth is on record?
114

* * *

# Tested on: NCI/ADR-RES ovarian
# PROCEDURE_TEXT: NCI-60 one-dose screen, 48 h (100 = growth as untreated, 0 = no growth, -100 = all killed)
# RUN_PARAMETERS: 10 µM unless noted
Compounds without any hit were thinned out: in the full panel of roughly 83,000, 20% have a hit.
// boundary case: growth equal to 90% maps to FALSE; strictly smaller maps to TRUE

CCCCNC(=O)Oc1ccc(/C(=C(/CC)Cc2ccccc2)c2ccc(OCCCN(C)C)cc2)cc1 : TRUE
Cc1ccn2cc(Cc3cc(=O)oc4c3ccc3ccccc34)c(=O)nc2c1 : FALSE
COc1cc(NC(C)CCCN2C(=O)c3ccccc3C2=O)c2nccc(C)c2c1OC (centres undefined) : TRUE

Shift focus to the following entry.
Field: below-cutoff. Rule: recorded growth strictly less than 90%. Subject: O=C(NCCNc1nccc(-c2c(-c3cccc(O)c3)nc3sccn23)n1)c1cc(N2CCOCC2)cc(C(F)(F)F)c1
FALSE

* * *

# System: UACC-257 melanoma
# PROCEDURE_TEXT: NCI-60 one-dose screen, 48 h (100 = growth as untreated, 0 = no growth, -100 = all killed)
# RUN_PARAMETERS: 10 µM unless noted
About 83,000 compounds went through this panel and 20% of them were active in at least one assay; those are over-represented in the sample as a whole.
PROPERTY_LABEL: growth (%)
Quick note: give the figure in %, leave out the unit.

Example entries and their recorded answers appear below.
S=C=NP1(N=C=S)=NP(N=C=S)(N=C=S)=NP(N=C=S)(N=C=S)=NP(N=C=S)(N=C=S)=N1 (stereo unspecified) : 94.8
COc1ccc(/C=N/C2=NNC(C)(c3ccccc3O)N2C(Cc2c[nH]c3ccccc23)C(=O)O)cc1 (stereo unspecified) : 23.5
CC(=O)c1cc2c(c(O)c1C)C(=O)C(=O)c1c(O)cccc1-2 : -95.7
O=C(Nc1ccc(F)cc1)Nc1ccc(Br)c(C(F)(F)F)c1 : 1.49
C#CCn1c(-c2cc(OC)c(OC)cc2Br)nc(-c2ccccc2)c1-c1ccccc1 : 59.2
O=c1nc(N2CCOCC2)oc2c(-c3cccc4ccccc34)cccc12 : 96.5
O=C1CN(CCN2CC(=O)NC(=O)C2)CC(=O)N1 : 104
O=C(Cn1c2ccccc2c2ccncc21)N/N=C/c1c[nH]c2ccccc12 : 88.3

Data request, read-out growth, for Cc1ccc2c(c1)Nc1ccc(C)cc1C2(C)C
110

Bench note: what growth did Nc1nc(Cl)c2c(C(F)(F)F)cn(CC3CCNCC3)c2n1 show?
83.8

Need growth, item CCNc1ncnc2n[nH]nc12
92.9

* * *

# Tested on: T-47D breast
# PROCEDURE_TEXT: NCI-60 one-dose screen, 48 h (100 = growth as untreated, 0 = no growth, -100 = all killed)
# RUN_PARAMETERS: 10 µM unless noted
This is part of a sample that, as a whole, favours compounds with a hit. Of some 83,000 tested, about 20% had one in any assay.
Listing: growth of selected molecules
Return type: number; implicit unit %.

Sample answers from the record:
CCOC(=O)C1CN(Cc2ccccc2)C(=O)C1=O (stereo not given) : 104
COc1ccc(NC(=O)Nc2ccc(-c3ccc(OC)c(OC)c3)nc2C)cc1 : 60.4
Cc1nccc2c3ccc(OCc4cn(-c5ccc(Br)cc5)nn4)cc3n(CCCc3ccccc3)c12 : 104
CCCCCCCCCCCC(=O)OCCNC(=O)C[n+]1ccccc1 : 95.3
FC(F)(F)c1cccc([Si](F)(c2cccc(C(F)(F)F)c2)c2cccc(C(F)(F)F)c2)c1 : 40.4

Entry COc1ccc(C(=O)Cn2cnc3c(Nc4cc(C(=O)Nc5ccc(N6CCN(CCO)CC6)cc5)ccc4C)ncnc32)cc1 : reported growth = ?
91.6

State the recorded growth for this entry: COc1ccc(-c2nn(-c3cccc(Cl)c3)cc2-c2cc(-c3ccc(Br)cc3)[nH]c(=O)c2C#N)cc1
70.8

Quick one: growth of O=c1c2ccccc2[nH]n1Cc1ccc2c(c1)OCO2 ?
88.9

Entry under review: Cc1c(F)cccc1NC(=O)c1sc2nc3c(cc2c1N)CCCCC3 . Reported growth?
63.6

Recorded growth for Nc1ncc(-c2ccc3ncnc(Nc4ccc(F)c(Cl)c4)c3c2)cn1 , please?
26

* * *

Here the recorded growth is given for each entry.
# Test system: UO-31 renal
# PROCEDURE_TEXT: NCI-60 one-dose screen, 48 h (100 = growth as untreated, 0 = no growth, -100 = all killed)
# RUN_PARAMETERS: 10 µM unless noted
The panel holds about 83,000 compounds, 20% with a hit somewhere; the sample as a whole holds those more often.
Numbers only here, please. The scale is %.

CCOC(=O)C(C)(CSSCC(C)(NC(=O)c1ccc2ccccc2c1)C(=O)OCC)NC(=O)c1ccc2ccccc2c1 (centres undefined) : 80.6
Cc1[nH]c2ccc(F)cc2c1CCNC(=O)C1CCN(C(=O)c2ccc(-c3ccccc3)cc2)CC1 : 36.5
CCN(CC)CCN1C(=O)c2c(c3c4ccccc4[nH]c3c3[nH]c4ccccc4c23)C1=O : 71.3
COC1=C(OC)C(=O)C=CC1=O : 89.1
COc1ccc2c(c1)nnc1c3cccnc3[nH]c21 : -74.1

Could you share what growth was measured for N#CC1=C(N)Oc2c(ccc3ccccc23)C1c1cc(=O)oc2ccc(Cl)cc12 (centres undefined) , tested on UO-31 renal?
50.9

Query the reported growth for UO-31 renal; item: CCCCC(=O)Nc1nc2ccc(SCCC)cc2s1
37.5

Find growth (UO-31 renal) for the entry O=C(Nc1ccc(-n2cc(-c3ccncc3)c(-c3ccc(O)c(Cl)c3)n2)cc1)Nc1cc(C(F)(F)F)cc(C(F)(F)F)c1
59.6

So what growth did COc1ccc(/C=C/C(=O)c2ccc(-n3cc(CN4CCN(c5cc6c(cc5F)c(=O)c(C(=O)O)cn6C5CC5)CC4)nn3)cc2)cc1OC get with UO-31 renal?
43.5

* * *

# Tested on: OVCAR-4 ovarian
# PROCEDURE_TEXT: NCI-60 one-dose screen, 48 h
# RUN_PARAMETERS: 10 µM unless noted
About 83,000 compounds went through this panel and 20% of them were active in at least one assay; those are over-represented in the sample as a whole. Activity calls are given as the source filed them. The calls were made as follows: active = growth percent below 10; inactive = the rest.
Field 'call' accepts t for active, f for inactive

c1ccc2nc(Cn3cc[n+](Cc4ccc5ccccc5n4)c3)ccc2c1 : f
CC(=O)c1cc2c(c(O)c1C)C(=O)C(=O)c1c(O)cccc1-2 : t

Check the results log: what was the call for O=C(CSc1nnc(-c2ccc(Cl)cc2)o1)Nc1ccc(C(=O)/C=C/c2ccccc2)cc1 ?
f

Fill in: this test's call for O=C(NNC(=O)c1ccc([N+](=O)[O-])cc1)c1ccc([N+](=O)[O-])cc1 is ___
f

Kindly provide the recorded test outcome for the following molecule: CN(C)C(=O)Nc1nc2cc(Cl)c(Cl)cc2[nH]1
f

* * *

# Tested on: NCI-H23 lung
# PROCEDURE_TEXT: NCI-60 one-dose screen, 48 h (100 = growth as untreated, 0 = no growth, -100 = all killed)
# RUN_PARAMETERS: 10 µM unless noted
The panel holds about 83,000 compounds, 20% with a hit somewhere; the sample as a whole holds those more often.
PROPERTY_LABEL: growth (%)
The answer is to be given in %; state only the numeric part.

Example entries begin here.
CC(C)(C)OC(=O)NCc1cccc(N=C=S)c1 : 55.3
CCCCOc1nc2ccc(Cl)cc2cc1/C=C/C(=O)/C=C/c1ccc(Cl)cc1 : 79.8
CCOC(=O)C1=C(N)Oc2cc(OC)ccc2C1c1ccc(F)c(F)c1 (centres undefined) : 45.1

So what's the measured growth for this one? COc1cc(/C=C\c2cc(/C=C\c3ccc(O)c(OC)c3)n(C(=O)CNc3ccccc3OC)n2)ccc1O
69.7

What growth value was documented for this compound, CCN(CC)CCN1C(=O)c2c(c3c4ccccc4[nH]c3c3[nH]c4ccccc4c23)C1=O ?
85.6
